Each entry below lists one item and its recorded melting point value.

Solved entries (count: 3):
# GIVEN SMILES, RESULT
data = [
    ("CCCC(CCC)N1C(=O)CCc2c(C)nc(N(CC)c3ccc(C(C)C)cc3Br)nc21", "92 to 94 °C"),
    ("CCCC(CCC)N1CCCc2c(C)nc(Nc3ccc(C(C)C)cc3Br)nc21.Cl", "182 to 184 °C"),
    ("CCC(CC)N1C(=O)CCc2c(C)nc(Nc3ccc(C(C)C)cc3Br)nc21", "124 to 126 °C"),
]

Next up:
Request: Could you tell me which melting point is on file for CCCC(CCC)N1CCCc2c(C)nc(N(CC)c3ccc(C(C)C)cc3Br)nc21.Cl ?
Result: 201 to 205 °C
